Biological target: Edema Factor (EF) (Bacillus anthracis)
Sequence (P40136 whole entry, looked up): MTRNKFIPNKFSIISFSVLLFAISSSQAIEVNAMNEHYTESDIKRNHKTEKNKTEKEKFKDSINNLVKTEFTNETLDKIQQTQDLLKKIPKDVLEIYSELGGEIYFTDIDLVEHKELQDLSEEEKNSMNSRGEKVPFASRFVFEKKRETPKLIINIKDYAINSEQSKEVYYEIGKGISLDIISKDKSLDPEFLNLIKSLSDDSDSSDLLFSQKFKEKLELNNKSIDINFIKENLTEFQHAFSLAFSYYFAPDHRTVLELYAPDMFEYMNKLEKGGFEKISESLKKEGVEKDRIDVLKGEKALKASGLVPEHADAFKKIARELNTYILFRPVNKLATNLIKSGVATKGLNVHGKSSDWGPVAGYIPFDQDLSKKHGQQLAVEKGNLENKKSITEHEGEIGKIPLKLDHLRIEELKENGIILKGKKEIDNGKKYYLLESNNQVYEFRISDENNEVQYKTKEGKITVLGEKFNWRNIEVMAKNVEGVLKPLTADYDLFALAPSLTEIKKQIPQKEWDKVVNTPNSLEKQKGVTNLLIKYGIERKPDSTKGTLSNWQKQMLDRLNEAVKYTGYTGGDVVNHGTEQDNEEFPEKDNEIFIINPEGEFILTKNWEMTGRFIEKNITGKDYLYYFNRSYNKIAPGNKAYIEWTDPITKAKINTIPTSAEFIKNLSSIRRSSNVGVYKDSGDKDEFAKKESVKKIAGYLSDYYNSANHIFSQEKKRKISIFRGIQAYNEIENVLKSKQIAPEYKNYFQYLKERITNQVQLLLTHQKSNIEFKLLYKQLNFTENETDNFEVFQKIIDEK
Test: cell-based
Format: cell-based
reported.endpoint: IC50 (µM)

molecule="COC(=O)c1cc(NC(=O)c2cccc3c2C(=O)c2ccccc2-3)ccc1O [Compound 14]" reported_endpoint=IC50 measured_number=249
molecule="Nc1cc(NC(=O)c2cccc3c2C(=O)c2ccccc2-3)cc(C(=O)O)c1 [Compound 10]" reported_endpoint=IC50 measured_number=1.3

###

Biological target: Edema Factor (EF) (Bacillus anthracis)
Experiment: cell-based
Format: cell-based
reported.endpoint: EF inhibitory activity, in words

smiles_record=Nc1ccc(NC(=O)c2cccc3c2C(=O)c2ccccc2-3)c(C(=O)O)c1 result=inactive
smiles_record=O=C(O)c1cc(NC(=O)c2cccc3c2C(=O)c2ccccc2-3)ccc1O result=inactive
